Molecular target: Integrin alpha-4/beta-1 (Homo sapiens, UniProt P05556+P13612)
Sequence (P05556 whole entry): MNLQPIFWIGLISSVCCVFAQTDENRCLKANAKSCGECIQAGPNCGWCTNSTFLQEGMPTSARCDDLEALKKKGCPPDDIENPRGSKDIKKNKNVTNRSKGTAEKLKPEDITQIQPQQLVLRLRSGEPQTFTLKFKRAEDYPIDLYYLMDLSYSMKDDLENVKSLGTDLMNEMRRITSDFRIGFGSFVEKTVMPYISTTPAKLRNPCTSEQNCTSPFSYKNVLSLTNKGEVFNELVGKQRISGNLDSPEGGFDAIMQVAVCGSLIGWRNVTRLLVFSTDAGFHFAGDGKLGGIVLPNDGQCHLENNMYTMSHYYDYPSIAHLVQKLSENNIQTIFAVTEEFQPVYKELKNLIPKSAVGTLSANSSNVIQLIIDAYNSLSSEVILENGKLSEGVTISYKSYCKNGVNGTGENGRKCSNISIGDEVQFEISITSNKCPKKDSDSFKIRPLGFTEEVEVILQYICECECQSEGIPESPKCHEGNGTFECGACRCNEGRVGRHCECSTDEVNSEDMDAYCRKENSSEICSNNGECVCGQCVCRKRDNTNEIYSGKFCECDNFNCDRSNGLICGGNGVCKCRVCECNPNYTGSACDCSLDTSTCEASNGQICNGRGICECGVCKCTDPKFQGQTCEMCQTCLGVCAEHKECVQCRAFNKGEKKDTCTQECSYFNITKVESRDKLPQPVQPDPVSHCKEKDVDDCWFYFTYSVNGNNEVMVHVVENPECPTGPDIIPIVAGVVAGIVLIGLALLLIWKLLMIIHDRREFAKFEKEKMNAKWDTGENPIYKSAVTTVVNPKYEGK
Sequence (P13612 whole entry): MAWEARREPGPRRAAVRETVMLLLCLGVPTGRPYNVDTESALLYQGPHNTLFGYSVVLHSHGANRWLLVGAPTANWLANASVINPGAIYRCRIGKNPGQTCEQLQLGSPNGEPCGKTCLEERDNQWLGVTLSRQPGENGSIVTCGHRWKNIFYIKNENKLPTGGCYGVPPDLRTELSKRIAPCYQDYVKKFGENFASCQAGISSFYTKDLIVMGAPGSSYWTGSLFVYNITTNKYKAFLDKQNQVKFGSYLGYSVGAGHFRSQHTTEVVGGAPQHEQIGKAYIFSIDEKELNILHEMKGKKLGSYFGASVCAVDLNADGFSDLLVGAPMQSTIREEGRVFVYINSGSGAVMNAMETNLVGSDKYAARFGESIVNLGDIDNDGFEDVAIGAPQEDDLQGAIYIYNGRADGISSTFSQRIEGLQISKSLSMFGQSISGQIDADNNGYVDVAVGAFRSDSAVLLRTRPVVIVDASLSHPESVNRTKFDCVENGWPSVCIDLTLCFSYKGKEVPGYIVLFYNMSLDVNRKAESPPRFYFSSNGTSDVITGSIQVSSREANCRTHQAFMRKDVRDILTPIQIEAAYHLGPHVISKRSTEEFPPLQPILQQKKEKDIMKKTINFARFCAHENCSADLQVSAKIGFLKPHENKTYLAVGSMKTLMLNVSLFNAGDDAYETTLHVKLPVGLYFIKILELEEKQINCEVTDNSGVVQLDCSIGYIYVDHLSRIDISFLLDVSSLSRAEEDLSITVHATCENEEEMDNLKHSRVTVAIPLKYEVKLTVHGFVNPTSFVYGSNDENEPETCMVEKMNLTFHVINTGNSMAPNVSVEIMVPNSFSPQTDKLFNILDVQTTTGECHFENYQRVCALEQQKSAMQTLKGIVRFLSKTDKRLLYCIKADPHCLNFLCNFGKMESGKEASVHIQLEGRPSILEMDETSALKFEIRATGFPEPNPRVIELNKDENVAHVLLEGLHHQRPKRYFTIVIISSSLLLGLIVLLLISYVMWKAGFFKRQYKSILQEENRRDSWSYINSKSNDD
Assay: Concentration required to inhibit the VCAM-Very late antigen4 (VLA4) interaction in ELISA cell-based assay
Type: functional
MEASUREMENT KIND: IC50 (nM)
Answer format: numeric, nM implied, no suffix.

COc1ccc(S(=O)(=O)N2CCN(C(=O)c3ccc(C[C@H](NC(=O)[C@@H]4CCC(=O)N4Cc4ccccc4)C(=O)O)cc3)CC2)cc1 12
COc1ccc(S(=O)(=O)N2CCN(C(=O)c3cccc(C[C@H](NC(=O)[C@@H]4CCC(=O)N4Cc4ccccc4)C(=O)O)c3)CC2)cc1 73
C[C@H](NC(=O)c1ccc(C[C@H](NC(=O)[C@@H]2CCC(=O)N2Cc2ccccc2)C(=O)O)cc1)c1ccccc1 27

The record that follows has no IC50 shown yet.
Qu. State the recorded IC50 for this entry: O=C(O)[C@H](Cc1ccc(C(=O)N2CCN(S(=O)(=O)c3ccccc3)CC2)cc1)NC(=O)[C@@H]1CCC(=O)N1Cc1ccccc1
Ans. 11

---

Target: Integrin alpha-4/beta-1 (Homo sapiens, UniProt P05556+P13612)
Assay: Concentration required to inhibit the VCAM-Very late antigen4 (VLA4) interaction in ELISA cell-based assay
Format: functional
Listing of recorded pIC50 by entry.
Keep it numeric: pIC50 is minus log10 of the concentration in mol/L.

Worked cases, pIC50 given:
COMPOUND	TARGET OR SYSTEM	pIC50
CCN(CC)C(=O)C(Cc1ccc(O)cc1)NC(=O)c1ccc(C[C@H](NC(=O)[C@@H]2CCC(=O)N2Cc2ccccc2)C(=O)O)cc1 (stereo not given in full)	Integrin alpha-4/beta-1 (Homo sapiens, UniProt P05556+P13612)	8.30
CC(=O)N1CCN(C(=O)c2ccc(C[C@H](NC(=O)[C@@H]3CCC(=O)N3Cc3ccccc3)C(=O)O)cc2)CC1	Integrin alpha-4/beta-1 (Homo sapiens, UniProt P05556+P13612)	8.15
O=C(O)[C@H](Cc1ccc(C(=O)N2CCN(C(=O)c3cccc(O)c3)CC2)cc1)NC(=O)[C@@H]1CCC(=O)N1Cc1ccccc1	Integrin alpha-4/beta-1 (Homo sapiens, UniProt P05556+P13612)	8.52
O=C(Nc1ccc(C[C@H](NC(=O)[C@H]2CCC(=O)N2Cc2ccccc2)C(=O)O)cc1)c1c(Cl)cccc1Cl	Integrin alpha-4/beta-1 (Homo sapiens, UniProt P05556+P13612)	9.43
COc1ccc(C(=O)N2CCN(C(=O)c3ccc(C[C@H](NC(=O)[C@@H]4CCC(=O)N4Cc4ccccc4)C(=O)O)cc3)CC2)cc1	Integrin alpha-4/beta-1 (Homo sapiens, UniProt P05556+P13612)	8.40

The record that follows has no pIC50 shown yet.
Qu. State the recorded pIC50 for this entry: O=C(O)[C@H](Cc1cccc(C(=O)N2CCN(S(=O)(=O)c3ccccc3)CC2)c1)NC(=O)[C@@H]1CCC(=O)N1Cc1ccccc1
Ans. 7.22

---

Listing of recorded IC50 by entry.
Biological target: Integrin alpha-4/beta-1 (Homo sapiens, UniProt P05556+P13612)
Assay: Concentration required to inhibit the VCAM-Very late antigen4 (VLA4) interaction in Ramos cell-based assay
Type: functional

MOLECULE	IC50
COc1ccc(C(=O)N2CCN(C(=O)c3ccc(C[C@H](NC(=O)[C@@H]4CCC(=O)N4Cc4ccccc4)C(=O)O)cc3)CC2)cc1	320 nM
O=C(O)[C@H](Cc1ccc(C(=O)N2CCN(C(=O)c3ccccc3)CC2)cc1)NC(=O)[C@@H]1CCC(=O)N1Cc1ccccc1	960 nM
CCN(CC)C(=O)C(Cc1ccc(O)cc1)NC(=O)c1ccc(C[C@H](NC(=O)[C@@H]2CCC(=O)N2Cc2ccccc2)C(=O)O)cc1 (stereo not given in full)	550 nM

Qu. State the recorded IC50 for this entry: O=C(O)[C@H](Cc1ccc(C(=O)N2CCN(C(=O)c3ccc(O)cc3)CC2)cc1)NC(=O)[C@@H]1CCC(=O)N1Cc1ccccc1
Ans. 1700 nM

Qu. State the recorded IC50 for this entry: CCN(CC)C(=O)C(Cc1ccc(O)cc1)NC(=O)c1cccc(C[C@H](NC(=O)[C@@H]2CCC(=O)N2Cc2ccccc2)C(=O)O)c1 (stereo not given in full)
Ans. 24400 nM

Taken from ChEMBL document CHEMBL1135363.
